Overview of reported Average P. berghei 3 µM response( %) across a group of compounds:
- System: P. berghei-ANKA-GFP-LucCON liver stage parasites in HepG2-A16-CD81EGFP cells
- protocolNotes: P. berghei liver stage Pb-Luc assay, Method 1 (UCSD, 1536-well)
- Type: cell-based, Plasmodium berghei
- experimentalParameters: P. berghei liver stage, 3 µM dose, averaged response (percent)

# compound, unitName, Average P. berghei 3 µM response( %)
rows = [
    ("O=C(Nc1ccc(-c2csc(Nc3cccc(C(F)(F)F)c3)n2)cc1)c1cc([N+](=O)[O-])cc(C(F)(F)F)c1 [MLS000911524]", "%", 73),
    ("CCCCCC(=O)O[C@]1(C(C)=O)CC[C@H]2[C@@H]3CCC4=CC(=O)CC[C@]4(C)[C@H]3CC[C@@]21C [MLS000028438]", "%", 29),
    ("CC(C)N(Cc1ccccc1)C(=O)CN1C(=O)COc2ccc([S+](=O)([O-])N3CCCCCC3)cc21 [NCGC00123222]", "%", 127),
    ("O=C(CCl)Nc1ccc(Oc2cnc3ccccc3n2)cc1 [MLS000327546]", "%", 121),
]
